Target: NS3 (HCV) (Hepacivirus hominis (Hepatitis C virus), UniProt P26663)
Sequence (P26663 1027-1657): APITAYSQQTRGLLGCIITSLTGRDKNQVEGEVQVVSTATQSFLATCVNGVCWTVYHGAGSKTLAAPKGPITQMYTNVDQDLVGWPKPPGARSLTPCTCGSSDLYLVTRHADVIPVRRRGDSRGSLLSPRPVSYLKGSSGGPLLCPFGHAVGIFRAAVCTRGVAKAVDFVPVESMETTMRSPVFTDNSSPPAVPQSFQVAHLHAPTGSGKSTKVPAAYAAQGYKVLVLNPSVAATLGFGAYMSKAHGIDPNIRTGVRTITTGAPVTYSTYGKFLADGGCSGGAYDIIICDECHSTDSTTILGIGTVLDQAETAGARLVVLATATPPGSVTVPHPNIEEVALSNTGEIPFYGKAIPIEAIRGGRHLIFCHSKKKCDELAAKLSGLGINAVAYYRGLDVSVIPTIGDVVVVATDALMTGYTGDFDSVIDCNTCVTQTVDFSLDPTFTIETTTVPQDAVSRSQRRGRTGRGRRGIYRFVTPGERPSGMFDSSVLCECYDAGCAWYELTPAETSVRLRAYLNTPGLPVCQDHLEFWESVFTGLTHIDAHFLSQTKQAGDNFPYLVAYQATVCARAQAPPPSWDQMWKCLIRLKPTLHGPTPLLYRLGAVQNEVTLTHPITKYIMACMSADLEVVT
MEASURED_PROPERTY: pIC50
The read-out pIC50 is expressed as -log10 of concentration in moles per litre.

Ask: Provide pIC50, system NS3 (HCV) (Hepacivirus hominis (Hepatitis C virus), UniProt P26663), entry CCCCc1cn(-c2ccc(NC(=O)Nc3ccccc3C)cc2)nn1 [Compound 20a]
Reply: 4.77

---

Test system: HIV-1 strains carrying resistance mutations
Experiment: microbe, parasite or virus in culture
Format: cell-based
Conditions: Human immunodeficiency virus 1, TZM-bl, read-out: IC50 [95% CI] (μM), HIV-1 strain 11808
MEASURED_PROPERTY: IC50 (µM)
Write the number in µM without appending the unit.

Ask: Look up and report measured IC50 for this entry: CCCCc1cn(-c2ccc(NC(=O)Nc3ccccc3C)cc2)nn1 [Compound 20a]
Reply: 0.23

---

Known Papp at 5 h, 0.5 mM of a selection of molecules
Test: Parallel Artificial Membrane Permeability Assay (PAMPA)
Format: in vitro ADME
Settings: PAMPA; phosphatidylcholine in dodecane, pH 7.4, 5 h, room temperature; read-out: PAMPA Papp *10^−6 (cm/s) GI
Kindly provide the numeric value in ×10⁻⁶ cm/s only, without the unit symbol.

# MOLECULE, Papp at 5 h, 0.5 mM / ×10⁻⁶ cm/s
measured = [
    ("CCCCn1nnc(-c2ccc(NC(=O)Nc3ccccc3C)cc2)n1", 7.57),
]

Ask: Input COCCc1cn(-c2ccc(NC(=O)Nc3ccccc3C)cc2)nn1 [Compound 20f] , output reported Papp at 5 h, 0.5 mM.
Reply: 0.69

Ask: Using known records, supply Papp at 5 h, 0.5 mM for Cc1ccccc1NC(=O)Nc1ccc(-n2cc(CCC(C)C)nn2)cc1 [Compound 20b]
Reply: 1.93

Ask: Note down Papp at 5 h, 0.5 mM recorded for CC(C)CCc1cn(-c2ccc(NC(=O)Nc3ccccc3C(F)(F)F)cc2)nn1 [Compound 22b]
Reply: 7.41

Ask: Identify measured Papp at 5 h, 0.5 mM associated with CCCCc1cn(-c2ccc(NC(=O)Nc3ccccc3C)cc2)nn1 [Compound 20a]
Reply: 2.86

Ask: // fetch Papp at 5 h, 0.5 mM given entry Cc1c(Cl)cccc1NC(=O)Nc1ccc(-n2cc(CCC(C)C)nn2)cc1 [Compound 21b]
Reply: 2.51

Ask: For CCCCc1cn(-c2ccc(NC(=O)Nc3ccccc3C(F)(F)F)cc2F)nn1 , write its Papp at 5 h, 0.5 mM.
Reply: 7.22

---

Assay: Water Solubility Assay
Assay type: physicochemical
Details: thermodynamic from solid, room temperature, 24-36 h, read-out: Aq. Solub.
Experimental: Water Solubility Assay. Each solid compound (1 mg) was added to 1 mL of water. The samples were shaked in a shaker bath at room temperature for 24-36 h. The suspensions were filtered through a 0.45 μm nylon filter (Acrodisc), and the solubilized compound determined by LC-MS-MS assay. For each compound the determination was performed in triplicate. […]
Measured solubility accompanies every entry in the list below.
Provide the reading as a plain figure in µg/mL.

As a guide, the following entries are already answered.
# COMPOUND, solubility [µg/mL]
measured = [
    ("COCCc1cn(-c2ccc(NC(=O)Nc3ccccc3C)cc2)nn1 [Compound 20f]", 26.3),
    ("CCCCc1cn(-c2ccc(NC(=O)Nc3ccccc3C)cc2)nn1 [Compound 20a]", 0.135),
    ("CC(C)CCc1cn(-c2ccc(NC(=O)Nc3ccccc3C(F)(F)F)cc2)nn1 [Compound 22b]", 0.002),
    ("CCCCc1cn(-c2ccc(NC(=O)Nc3ccccc3C(F)(F)F)cc2F)nn1", 80.1),
]

Ask: Give reported solubility value for CCCCc1cn(-c2ccc(NC(=O)Nc3ccccc3C(F)(F)F)cc2)nn1 [Compound 22a]
Reply: 0.107

---

Assay: Cytotoxicity, MTT method in LUNET cells
Assay type: cell-based
Settings: human; MMT method in LUNET cells; read-out: CC50 (μM) non-infected cells
In plain terms, low CC50, meaning strictly below 200 µM, gives satisfied, and everything else gives not satisfied.

The examples below pair each entry with its known result.
# COMPOUND, LABEL
data = [
    ("CCOCc1cn(-c2ccc(NC(=O)Nc3cc(C(C)C)ccc3C)cc2)nn1 [Compound 55e]", "not satisfied"),
    ("CC(C)CCc1cn(-c2ccc(NC(=O)Nc3cccc(F)c3)cc2)nn1 [Compound 55b]", "satisfied"),
    ("CC(C)CCc1cn(-c2ccc(NC(=O)Nc3ccccc3C(F)(F)F)cc2)nn1 [Compound 22b]", "satisfied"),
    ("Cc1nc(Cl)c2ccccc2c1NC(=O)Nc1ccc(-n2cc(CCC(C)C)nn2)cc1 [Compound 55g]", "not satisfied"),
    ("CCCCn1nnc(-c2ccc(NC(=O)Nc3ccccc3C(F)(F)F)cc2)n1", "satisfied"),
    ("CCc1cn(-c2ccc(NC(=O)Nc3ccccc3C)cc2)nn1", "not satisfied"),
]

Ask: # check: CC50 < 200 µM for Cc1ccccc1NC(=O)Nc1cccc([N+](=O)[O-])c1 [EI01D, reference compound]
Reply: satisfied

Ask: I wonder whether CCOCn1nnc(-c2ccc(NC(=O)Nc3ccccc3C)cc2)n1 has CC50 below 200 µM. Can you tell?
Reply: not satisfied

Ask: Criterion: CC50 strictly below 200 µM. Is it met by Cc1ccccc1NC(=O)Nc1ccc(-n2cc(CCC(C)C)nn2)cc1 [Compound 20b] ?
Reply: satisfied

---

Listed below: CC50 at 24 h values for each entry.
Assay: Cytotoxicity in PBMC, CellTiter 96 MTS viability assay
Type: cell-based
Settings: human, human primary PBMCs; 24 h

Below are worked cases with known answers.
# COMPOUND, CC50 at 24 h
measured = [
    ("CCCCc1cn(-c2cccc(S(=O)(=O)Nc3ccccc3C(F)(F)F)c2)nn1 [Compound 64d]", "2130 µM"),
    ("CCCCc1cn(-c2ccc(NC(=O)Nc3ccccc3C)cc2)nn1 [Compound 20a]", "> 1000 µM"),
    ("CCCCn1nnc(-c2ccc(NC(=O)Nc3ccccc3C)cc2)n1", "> 1000 µM"),
]

Ask: Read off the recorded CC50 at 24 h for CCOCc1cn(-c2cccc(S(=O)(=O)Nc3ccccc3C(F)(F)F)c2)nn1 [Compound 66d]
Reply: 450 µM

---

The entries below come with measured CC50 values attached.
Test: Cytotoxicity, MTT method in LUNET cells
Format: cell-based
Settings: human; MMT method in LUNET cells; read-out: CC50 (μM) non-infected cells
Express the result in µM but write the number alone.

# example entries with known answers
# COMPOUND, CC50, µM
data = [
    ("Cc1ccccc1NC(=O)Nc1ccc(-n2cc(CCOC(=O)CC(C)C)nn2)cc1", 180),
    ("Cc1cn(-c2ccc(NC(=O)Nc3ccccc3C)cc2)nn1", 36),
    ("CCOCc1cn(-c2ccc(NC(=O)Nc3ccccc3C)cc2)nn1 [Compound 20e]", 51.8),
]

// switching to the query compound
Ask: Return reported CC50. Input compound: Cc1ccncc1NC(=O)Nc1ccc(-n2cc(CCC(C)C)nn2)cc1 [Compound 15b]
Reply: 180

---

Test: Cytotoxicity, MTT method in LUNET cells
Assay type: cell-based
Conditions: human; MMT method in LUNET cells; read-out: CC50 (μM) non-infected cells
In this section, each of the compounds is paired with its reported CC50.
Give your result in µM as a bare value.

// known answers, use as guide
# COMPOUND, CC50, µM
rows = [
    ("CCCCc1cn(-c2ccc(NC(=O)Nc3ccccc3C(F)(F)F)cc2F)nn1 [Compound 81]", 74.2),
    ("O=[N+]([O-])c1cccc(S(=O)(=O)Nc2ccccc2O)c1 [Compound 58a]", 215),
]

Ask: For O=C(Nc1ccc(-n2cc(CCOC(=O)/C=C/c3ccc4c(c3)OCO4)nn2)cc1)Nc1ccccc1C(F)(F)F [Compound 39] , write its CC50.
Reply: 28.6

Ask: Note down CC50 recorded for Cc1c(Cl)cccc1NC(=O)Nc1ccc(-n2cc(CCC(C)C)nn2)cc1 [Compound 21b]
Reply: 42.1

Ask: Report CC50 for CCCCc1cn(-c2ccc(NC(=O)Nc3ccccc3C)cc2)nn1 [Compound 20a]
Reply: 49.8

Ask: State, in one line, measured CC50 of COCCc1cn(-c2ccc(NC(=O)Nc3ccccc3C)cc2)nn1 [Compound 20f]
Reply: 44.4

Ask: Check the records and state CC50 for CC(C)CC(=O)OCCc1cn(-c2ccc(NC(=O)Nc3ccccc3C(F)(F)F)cc2)nn1 [Compound 38]
Reply: 23.2

Ask: Return value of CC50 for input CCOCc1cn(-c2cccc(S(=O)(=O)Nc3ccccc3C(F)(F)F)c2)nn1 [Compound 66d] , no commentary.
Reply: 58.6
